experimental-target: T1, human CTLA-4 (amino acids M1-N223) on stably transfected VI-fibroblast cells (human, UniProt P16410 36-223)
T1 construct: also called VI-fibroblast/hCTLA-4
T1 sequence (P16410 36-223 limits assumed): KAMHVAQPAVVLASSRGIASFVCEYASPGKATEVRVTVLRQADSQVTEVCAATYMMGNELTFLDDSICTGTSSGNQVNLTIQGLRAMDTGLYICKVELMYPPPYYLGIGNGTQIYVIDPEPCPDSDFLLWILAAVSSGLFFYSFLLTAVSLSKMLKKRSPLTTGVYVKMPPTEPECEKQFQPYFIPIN
measurement-protocol: ECL cell binding, VI-fibroblast/hCTLA-4 cells;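 also: antibodies bound to the cells on carbon electrode plates, detected via SULFO-TAG anti-IgG secondary (1 h, RT), electrochemiluminescence read as RLU over a concentration range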
readout-kind: ratio of RLU signal to parental VI-fibroblast at 0.4 nM Ab (ratio)
Write the value in ratio as a bare number.

A selection of reference data follows.
binder: H1H19269P (antibody, human IgG1, V domains shown) VH: EVQLVESGGGLVQPGGSLKLSCAASGFTFSGSAMHWVRQASGKGLEWVGRIRGKANSFATAYSASVKGRFTISRDDSKNTASLQMNSLRTEDTAVYFCTREDQQLVRPYYYHYGMDVWGQGTTVTVSS VL: DIQMTQSPSSLSASVGDRVTITCRTSQSITNYLNWYQQKPGKAPKLLIYATASLQSGVPSRFSGSGSETDFTLTISSLQPEDFATYYCQQSYSTPLTFGGGTKVEIK
value-observed: 15

binder: H1H19307P (antibody, human IgG1, V domains shown) VH: EVQLVESGGGLVQPGGSLRLACAASGFTFSDYYMDWVRQVPGKGLEWVGRSRDKANSFTTEYVASVKGRFTISREDSKNSVYLQMNSLKTEDTAVYYCARTNYDFSLDVWGQGTTVTVSS VL: DIQMTQSPSSLSASVGDRVTITCRASQDINNYLAWFQQKPGNAPKSLIYAASSLQSGVPSKFSGSGSGTDFTLTISSLQPEDFATYYCQQYSTYPITFGQGTRLEIK
value-observed: 7

binder: H1H19294P (antibody, human IgG1, V domains shown) VH: QVQLVQSGAEVKMSGASVRVSCKASGYTFTSYGISWMRQAPGQGLEWMGWITAYNGNSNYAQKLQGRVTMTTDTSTGTAYMELRSLTSDDTAVYYCARRGDYLGVFPYWGQGTLVTVSS VL: DIQMTQSPSSLSASVGDRVTITCRASQSISSYLNWYQQKPGKAPNLLIYTASSLQSGVPSRFSGSGSGTDFTLTISSLQPEDFATYYCQQSYSSPLTFGGGTKVEIK
value-observed: 10

binder: H1H19284P (antibody, human IgG1, V domains shown) VH: EVQLVESGGGLVQPGGSLRLSCAASGFTLSNYVMTWVRQAPGKGLEWVSAISGRGGNSYYADSVKGRFSISRDHSKNTLYLQVNSLRAEDTAVYYCAKAERGYSYGFNWFDPWGQGTLVTVSS VL: DIQMTQSPSSVSASAGDRVTITCRASQGISSWLAWYQQKPGKAPKLLIYAASSLQSGVPSRFSGSGSGTDFTLTISSLQPEDFASYYCQQGNNFPLTFGGGTKVEIK
value-observed: 7

binder: H1H19291P (antibody, human IgG1, V domains shown) VH: QVQLVESGGGVVQPGRSLRLSCAASGFTFSTYGMHWVRQAPGKGLEWVTVIWYDGNNKYYADSVKGRFTISRDNSKNTLYLQMNNLRAEDTALYYCARGGGRLSYYHDYWGQGTLVTVSS VL: DIQMTQSPSSLSASVGDRVTITCRASQSISTFLNWYQQKPGKAPNLLIYGTSSLQSGVPSRFSGSGSGTDFTLTISSLQPEDFAAYYCQQTYSTPFTFGPGTKVDIK
value-observed: 5

Problem: Query (binder): H1H19278P (antibody, human IgG1, V domains shown) VH: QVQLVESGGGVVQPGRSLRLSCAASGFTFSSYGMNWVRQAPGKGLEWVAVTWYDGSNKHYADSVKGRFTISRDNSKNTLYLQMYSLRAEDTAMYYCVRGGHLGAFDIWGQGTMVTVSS VL: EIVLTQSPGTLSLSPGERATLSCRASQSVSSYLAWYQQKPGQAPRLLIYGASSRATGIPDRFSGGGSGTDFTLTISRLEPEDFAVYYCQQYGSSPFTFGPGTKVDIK ; field requested: ratio of RLU signal to parental VI-fibroblast at 0.4 nM Ab
Solution: 19

Problem: Query (binder): H1H19303P (antibody, human IgG1, kappa, V domains shown, also called REGN4659) VH: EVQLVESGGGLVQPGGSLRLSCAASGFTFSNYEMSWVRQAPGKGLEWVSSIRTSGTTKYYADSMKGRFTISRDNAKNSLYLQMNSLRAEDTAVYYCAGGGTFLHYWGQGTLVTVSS VL: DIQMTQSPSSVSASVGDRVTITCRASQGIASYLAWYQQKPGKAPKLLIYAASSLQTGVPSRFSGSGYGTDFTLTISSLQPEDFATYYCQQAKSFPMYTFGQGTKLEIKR ; field requested: ratio of RLU signal to parental VI-fibroblast at 0.4 nM Ab
Solution: 20

Data origin: patent US20210040232A1
